test system: AMBEL (Ambrosia artemisifolia); experiment: Postemergence herbicidal evaluation; assay type: in vivo, L.; details: postemergence, rate 0.0620 kg/ha
Assay Metric: AMBEL herbicidal rating

Cn1c(C(F)(F)F)cc(=O)n(-c2ccc3snc(C4OCC(CS(C)(=O)=O)O4)c3c2)c1=O (single isomer, unassigned)
9.0
Cn1c(C(F)(F)F)cc(=O)n(-c2ccc3snc(C4(C)OCCO4)c3c2)c1=O
9.0
COC1(c2nsc3ccc(-n4c(=O)cc(C(F)(F)F)n(C)c4=O)cc23)N=C(N(C)C)NC1=O (stereo not drawn)
9.0
Cn1c(C(F)(F)F)cc(=O)n(-c2ccc3snc(C4OCC5(CO4)CO5)c3c2)c1=O (stereo not drawn)
9.0
CCN=C1NC(=O)C(OC)(c2nsc3ccc(-n4c(=O)cc(C(F)(F)F)n(C)c4=O)cc23)N1 (stereo not drawn)
8.0
CC(C)C1COC(c2nsc3ccc(-n4c(=O)cc(C(F)(F)F)n(C)c4=O)cc23)=N1 (stereo not drawn)
9.0
Cn1c(C(F)(F)F)cc(=O)n(-c2ccc3snc(-c4ccoc4)c3c2)c1=O
6.0
Cn1c(C(F)(F)F)cc(=O)n(-c2cc3c(C4OCCO4)nsc3cc2F)c1=O
9.0
Cn1c(C(F)(F)F)cc(=O)n(-c2ccc3snc(-c4sccc4CBr)c3c2)c1=O
9.0
CCCC1COC(c2nsc3ccc(-n4c(=O)cc(C(F)(F)F)n(C)c4=O)cc23)O1 (stereo not drawn)
9.0
Cn1c(C(F)(F)F)cc(=O)n(-c2ccc3snc(-c4sccc4CO)c3c2)c1=O
9.0
C[C@@H]1OC(c2nsc3cc(F)c(-n4c(=O)cc(C(F)(F)F)n(C)c4=O)cc23)O[C@@H]1C (stereo partly drawn)
9.0

###

Parameter: Postemergence herbicidal rating, ECHCG. Scope: all listed entries.
system: ECHCG (Echinochloa crus-galli); assay: Postemergence herbicidal evaluation; type: in vivo, (L.) Beau; details: rate 0.1250 kg/ha
Assay Metric: Postemergence herbicidal rating, ECHCG

Cn1c(C(F)(F)F)cc(=O)n(-c2ccc3snc(-c4cccs4)c3c2)c1=O
4.0
Cc1nnc(-c2nsc3ccc(-n4c(=O)cc(C(F)(F)F)n(C)c4=O)cc23)o1
1.5
COc1ccsc1-c1nsc2ccc(-n3c(=O)cc(C(F)(F)F)n(C)c3=O)cc12
0.0
Cc1ccsc1-c1nsc2ccc(-n3c(=O)cc(C(F)(F)F)n(C)c3=O)cc12
1.7
Cc1cccnc1-c1nsc2cc(F)c(N3C(=O)C4=C(CCCC4)C3=O)cc12
4.0
CN(C(=O)c1nsc2ccc(-n3c(=O)cc(C(F)(F)F)n(C)c3=O)cc12)c1ccc(Cl)cc1
0.0
Cc1nnc(-c2nsc3ccc(-n4c(=O)cc(C(F)(F)F)n(C)c4=O)cc23)s1
0.0

###

system: CYPIR (Cyperus iria); experiment: Flooded paddy, preemergence weed control; format: in vivo; settings: rate 0.0080 kg/ha, rated 3-4 weeks after treatment, 0-9 rating scale
Reported herbicidal rating, CYPIR by item:
Assay Metric: herbicidal rating, CYPIR

Cn1c(C(F)(F)F)cc(=O)n(-c2ccc3snc(-c4ccco4)c3c2)c1=O
0.0
C[C@@H]1C[C@H](C)OC(c2nsc3ccc(-n4c(=O)cc(C(F)(F)F)n(C)c4=O)cc23)O1 (stereo partly shown)
3.0
Cc1cscc1-c1nsc2ccc(-n3c(=O)cc(C(F)(F)F)n(C)c3=O)cc12
8.5
Cc1cnn(-c2nsc3ccc(-n4c(=O)cc(C(F)(F)F)n(C)c4=O)cc23)c1
0.0
Cn1c(C(F)(F)F)cc(=O)n(-c2cc3c(C4OCCCO4)nsc3cc2F)c1=O
4.5
Cn1c(C(F)(F)F)cc(=O)n(-c2ccc3snc(C4OCC(CCl)O4)c3c2)c1=O (stereo not shown)
0.0
C[C@@H]1C[C@H](C)OC(c2nsc3cc(F)c(-n4c(=O)cc(C(F)(F)F)n(C)c4=O)cc23)O1 (stereo partly shown)
4.5
CC1=CC(C)(C)OC(c2nsc3ccc(-n4c(=O)cc(C(F)(F)F)n(C)c4=O)cc23)C1 (stereo not shown)
0.0
Cc1csc(-c2nsc3ccc(-n4c(=O)cc(C(F)(F)F)n(C)c4=O)cc23)n1
7.0
CC1CCOC(c2nsc3ccc(-n4c(=O)cc(C(F)(F)F)n(C)c4=O)cc23)O1 (stereo not shown)
0.0
C[C@H]1OC(c2nsc3ccc(-n4c(=O)cc(C(F)(F)F)n(C)c4=O)cc23)O[C@@H]1C
0.0
Cn1c(C(F)(F)F)cc(=O)n(-c2cc3c(C4OCCO4)nsc3cc2F)c1=O
8.7
CC1CC(C)(C)OC(c2nsc3ccc(-n4c(=O)cc(C(F)(F)F)n(C)c4=O)cc23)O1 (stereo not shown)
0.0

# credit: patent US6706663B2
